Listing of recorded MIC by entry.
Test system: Susceptible (H37Rv) strain of Mycobacterium tuberculosis
Test: Resazurin Microplate Assay (REMA), anti-tubercular activity, H37Rv
Format: cell-based
Details: 192 h, read-out: MIC Susceptible (H37Rv)
ENDPOINT: MIC

# SUBSTANCE_SMILES, RESULT
data = [
    ("COc1ccc(Cl)cc1-n1ncc(-c2nnc(-c3ccc(Cl)c(Cl)c3)o2)c1C", "16 µg/mL"),
    ("COc1ccc(Cl)cc1-n1ncc(-c2nnc(-c3ccc(Br)cc3)o2)c1C", "8 µg/mL"),
    ("COc1ccc(Cl)cc1-n1ncc(-c2nnc(-c3ccc(C)c(Br)c3)o2)c1C", "16 µg/mL"),
    ("COc1ccc(Cl)cc1-n1ncc(-c2nnc(-c3ccc(C)c([N+](=O)[O-])c3)o2)c1C", "32 µg/mL"),
    ("COc1ccc(Cl)cc1-n1ncc(-c2nnc(-c3cccc(F)c3)o2)c1C", "8 µg/mL"),
    ("COc1ccc(Cl)cc1-n1ncc(-c2nnc(-c3ccc(Cl)cc3)o2)c1C", "4 µg/mL"),
    ("COc1ccc(Cl)cc1-n1ncc(-c2nnc(-c3ccc(F)cc3)o2)c1C", "4 µg/mL"),
    ("COc1ccc(Cl)cc1-n1ncc(-c2nnc(-c3ccc(Br)c(C)c3)o2)c1C", "32 µg/mL"),
    ("COc1ccc(Cl)cc1-n1ncc(-c2nnc(-c3ccccc3)o2)c1C", "16 µg/mL"),
    ("COc1ccc(Cl)cc1-n1ncc(-c2nnc(-c3cc(Cl)cc(Cl)c3)o2)c1C", "4 µg/mL"),
]
